biological target: Protein RecA (Mycobacterium tuberculosis, UniProt P9WHJ3); test: Fluorescence Cell-Free Homogeneous Dose Retest to Identify Inhibitors of RecA-Intein Splicing Activity. [Related pubchem assays (depositor defined):AID2097, AID2223, AID489010, AID492950]; assay type: functional
The source made the active and inactive calls.
Allowed answers: active, inactive

Field: outcome | Entry: COc1ccc(NC(=O)/C(Cl)=C(/Cl)[S+]([O-])Cc2ccccc2)cn1 (stereo not given)
active

Dear colleague, could you share the recorded outcome for CC(=O)N(C1=C(N)C(=O)c2ccccc2C1=O)c1ccccc1 when you have a moment?
active

What did this assay record as the result for Cc1cccc(Nc2nc(NCc3ccco3)c3ccccc3n2)c1 ?
active

Which result was noted for this compound in the test: COc1cc(/C=C2\C(=O)N(c3ccc(S(N)(=O)=O)cc3)N=C2C)ccc1OC(=O)c1ccco1
active

Please share the test call associated with O=C(O)CSc1c2c(nc3cc(C(=O)Nc4cccc(C(F)(F)F)c4)ccc13)CCCC2 .
active

# outcome recorded in this test, key = COc1ccc(C2NC(S)=NC3=C2CCc2ccccc23)cc1OC (stereo not given)
active

Returns: the outcome recorded for CCOC(=O)Cc1n[nH]c2c1C(c1cccc(OC)c1OC)C(C#N)=C(N)O2 (stereo not given) in this assay.
inactive

Please indicate how the test categorized Cc1cccc(Sc2c(C=O)c3ccccc3n2C)c1 .
active

// param item: Cc1ccc(S(=O)(=O)/N=C2\C=C(Nc3cccc(C(=O)O)c3)C(=O)c3ccccc32)c(C)c1 ; yields the recorded call
active

Please share the test call associated with COc1cc(C2CC(c3cccs3)=NN2C(=O)CCl)ccc1OC(F)F (stereo not given) .
active

Please let me know the test result on file for COC(=O)c1ccccc1S(=O)(=O)N1CCC(NC(=O)c2ccccc2)CC1 .
active

Please share the test call associated with CCCCCCCCCCCCCCCC[N+](C)(C)CC .
active

For O=[N+]([O-])c1cc([N+](=O)[O-])c2cc3ccccc3nc2c1 , what call appears in the results of this test?
active

Name the outcome recorded for Nc1ccc(N2CCCCC2)c2nonc12 in the assay.
active

GET /call?item= CC1=NN(c2ccccc2)C(=O)/C1=C/c1ccc(Cl)cc1 returns the recorded outcome of this test.
active

Fill in: this test's call for COc1cccc(/C=C2\SC(=S)N(CCCC(=O)N3CCCC3)C2=O)c1 is ___
inactive

Outcome logged for O=C([C-](C1=[N+](Cc2ccc(Cl)nc2)CCN1Cc1ccc(Cl)nc1)[N+](=O)[O-])C(Cl)Cl in this assay:
active

How did this test come out for N#CC1=C(N)Oc2nc(-c3ccccc3)[nH]c2C1c1cccnc1 (stereo not given) ?
active

# outcome recorded in this test, key = CCCc1n[nH]c2c1C(c1ccc(OCCN3CCOCC3)c(OC)c1)C(C#N)=C(N)O2 (stereo not given)
active

Dear colleague, could you share the recorded outcome for O=C1CC(CSc2ccc(Cl)cc2)=NN1 when you have a moment?
active

----------
molecular target: Histone-lysine N-methyltransferase NSD2 (Homo sapiens); format: biochemical
Sequence (O96028 whole entry): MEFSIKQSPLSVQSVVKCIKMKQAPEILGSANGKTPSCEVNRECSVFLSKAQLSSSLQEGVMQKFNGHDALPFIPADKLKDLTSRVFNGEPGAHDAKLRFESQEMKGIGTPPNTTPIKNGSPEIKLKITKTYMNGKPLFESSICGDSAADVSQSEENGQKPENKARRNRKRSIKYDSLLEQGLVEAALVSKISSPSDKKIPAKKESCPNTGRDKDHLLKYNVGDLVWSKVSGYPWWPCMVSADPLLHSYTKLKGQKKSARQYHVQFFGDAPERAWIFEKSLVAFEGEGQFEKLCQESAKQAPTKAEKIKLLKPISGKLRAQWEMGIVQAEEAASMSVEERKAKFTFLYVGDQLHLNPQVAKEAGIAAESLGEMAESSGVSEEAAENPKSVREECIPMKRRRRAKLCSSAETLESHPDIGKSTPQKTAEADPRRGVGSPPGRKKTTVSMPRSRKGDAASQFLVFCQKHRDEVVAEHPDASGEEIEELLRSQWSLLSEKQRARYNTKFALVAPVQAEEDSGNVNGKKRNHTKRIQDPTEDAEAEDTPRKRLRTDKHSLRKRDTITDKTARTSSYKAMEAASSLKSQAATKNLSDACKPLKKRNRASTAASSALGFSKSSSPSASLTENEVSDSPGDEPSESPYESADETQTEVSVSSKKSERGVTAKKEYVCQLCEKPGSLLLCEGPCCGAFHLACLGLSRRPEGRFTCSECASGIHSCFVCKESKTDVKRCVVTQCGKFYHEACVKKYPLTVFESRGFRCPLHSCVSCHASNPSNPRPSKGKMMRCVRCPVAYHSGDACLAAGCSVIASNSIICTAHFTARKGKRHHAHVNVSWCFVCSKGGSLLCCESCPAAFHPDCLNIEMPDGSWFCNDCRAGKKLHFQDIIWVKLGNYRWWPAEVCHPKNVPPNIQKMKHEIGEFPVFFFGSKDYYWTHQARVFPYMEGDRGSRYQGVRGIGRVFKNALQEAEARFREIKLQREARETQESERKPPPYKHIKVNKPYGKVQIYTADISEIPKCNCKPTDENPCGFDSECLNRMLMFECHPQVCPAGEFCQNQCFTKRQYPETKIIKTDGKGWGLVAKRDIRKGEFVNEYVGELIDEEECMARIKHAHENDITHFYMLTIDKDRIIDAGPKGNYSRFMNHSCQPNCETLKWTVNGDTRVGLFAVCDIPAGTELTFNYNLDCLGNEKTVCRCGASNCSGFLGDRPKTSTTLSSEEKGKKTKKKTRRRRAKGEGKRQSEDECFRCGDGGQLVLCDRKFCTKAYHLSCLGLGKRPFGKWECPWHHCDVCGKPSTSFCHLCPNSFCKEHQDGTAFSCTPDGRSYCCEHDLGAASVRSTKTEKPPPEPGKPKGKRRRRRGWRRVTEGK
Activity calls are given as the source filed them.
The reply should be one of these categories: active, inactive

Per the records of this test, what outcome belongs to COc1ccccc1-c1nnc2n1N=C(c1ccc(O)c(O)c1)CS2 ?
active

Recorded test outcome, item CNCCCCOc1ccccc1-c1ccccc1
inactive

For CCN(CC)CCNC(=O)Cc1nn(Cc2ccccc2)c(=O)c2ccccc12 , what call appears in the results of this test?
inactive

Answer briefly: the call reported for Cc1ccc(S(=O)(=O)/N=C2\C=C(Nc3cccc(C(=O)O)c3)C(=O)c3ccccc32)c(C)c1 in this assay.
active
